# System: SK-OV-3 ovarian
# assay comment: NCI-60 one-dose screen, 48 h (100 = growth as untreated, 0 = no growth, -100 = all killed)
# assay conditions: 10 µM
The panel holds about 83,000 compounds, 20% with a hit somewhere; the sample as a whole holds those more often.
Answer F if growth is under 80%, and T if it is 80% or more.

molecule	label class
O=C1/C(=C\c2ccc(Cl)cc2)CN(C(=O)c2ccccc2)C/C1=C\c1ccc(Cl)cc1	F
Cc1cc(N(CCCNc2ccnc3cc(Cl)ccc23)Cc2cccs2)nc(Cl)n1	F
COc1cc(Cl)cc(-c2nn(-c3cccc(NC(=O)Nc4ccc(Cl)c(C(F)(F)F)c4)c3)cc2-c2ccncc2)c1	F

Inquiry: # check: growth of N#CSCC1CC(O)(c2ccccc2)CC(c2ccc(Cl)cc2)O1 (stereo not given) is greater than or equal to 80%
Reply text: T

Inquiry: # check: growth of O=C(Nc1ccccc1)Nc1cccc(-n2cc(-c3ccncc3)c(-c3ccc(O)c(Cl)c3)n2)c1 is greater than or equal to 80%
Reply text: F

Inquiry: # check: growth of CC(=O)N1N=C(c2ccc(Cl)cc2)CC1c1sc(Cl)nc1Cl (stereo not given) is greater than or equal to 80%
Reply text: T

Inquiry: # check: growth of c1ccc([C@H]2CN3CCSC3=N2)cc1 is greater than or equal to 80%
Reply text: T

----------
# System: SW-620 colon
# assay comment: NCI-60 one-dose screen, 48 h (100 = growth as untreated, 0 = no growth, -100 = all killed)
# assay conditions: 10 µM
About 83,000 compounds went through this panel and 20% of them were active in at least one assay; those are over-represented in the sample as a whole.
Grouping key: growth. Bins: low interval (below 20%), middle interval (20% to below 70%), high interval (70% or more)

molecule	label class
CC1(C)Cc2c(sc3ncn4nc(-c5ccc(O)cc5)nc4c23)CO1	high interval
O=C(CCCCC[P+](c1ccccc1)(c1ccccc1)c1ccccc1)NC(COC(=O)C(Cl)Cl)(COC(=O)C(Cl)Cl)COC(=O)C(Cl)Cl	high interval
Cc1cc(Nc2ccc(Cl)cc2)nc(NCCCNc2ccnc3cc(Cl)ccc23)n1	low interval

Inquiry: Please let me know in which category the item O=C(Nc1cccc(-n2cc(-c3ccncc3)c(-c3ccc(O)c(Cl)c3)n2)c1)Nc1ccc(Cl)c(Cl)c1 belongs.
Reply text: low interval

Inquiry: Please let me know in which category the item O=[N+]([O-])c1cccc(-c2ncc(-c3ccc(Cl)cc3Cl)[nH]2)c1 belongs.
Reply text: low interval

Inquiry: Please let me know in which category the item COc1ccc2c(c1)C(=O)c1c-2c(=O)n(CCCN(C)C)c2cc(OC)c(OC)cc12 belongs.
Reply text: middle interval

Inquiry: Please let me know in which category the item CCn1cc(C(=O)O)c(=O)c2cnc(N3CCCC3)nc21 belongs.
Reply text: high interval

Inquiry: Please let me know in which category the item CC(=O)CSC(C)=O belongs.
Reply text: high interval

Inquiry: Please let me know in which category the item O=C(O)c1ccc(P(=O)(O)O)c([N+](=O)[O-])c1 belongs.
Reply text: high interval

----------
# System: NCI-H460 lung
# assay comment: NCI-60 one-dose screen, 48 h
# assay conditions: 10 µM
The panel holds about 83,000 compounds, 20% with a hit somewhere; the sample as a whole holds those more often. Calls of active or inactive are those of the source. How the source made its calls: active means growth percent below 10; inactive means the rest.
The categories you may choose from are true for active, false for inactive

Solved entries:
compound	label class
COc1ccc2c(c1OC)O/C(=C\c1ncc([N+](=O)[O-])n1C)C2=O	true
O=C1NC(=O)N(Cc2ccccc2)CC1Br (stereo not given)	false
CC(C)(C#N)Nc1ccccc1	false
COc1ccc(-n2c(SCc3cc(OC)c(OC)c(OC)c3)nc3ccc(C)cc3c2=O)cc1	false
COC(=O)C1(C)Cc2cc(OC(C)=O)c(OC(C)=O)cc2N1 (stereo not given)	false
O=C(Nc1ccncc1)C(=O)c1cn(S(=O)(=O)c2ccc(F)cc2)c2ccccc12	false

Inquiry: # lookup: test call for CCOC(=O)c1ccc(NC(=O)Nc2ncc(Cl)cc2Cl)cc1
Reply text: false
